Record: pIC50 reported on Cathepsin D (Homo sapiens).
pIC50: −log10 of the molar value.
MEASURED_QUANTITY: pIC50

Recorded results for 2 compounds are shown here.
COMPOUND | MEASURED_QUANTITY | QUANTITATIVE_RESULT
CN1C(=O)C(c2cccc(-c3cccnc3F)c2)(c2cnn(CCC(C)(C)C)c2)N=C1N (racemic) | pIC50 | 6.44
CN1C(=O)C(c2ccsc2)(c2ccc(F)c(-c3cccnc3)c2)N=C1N (racemic) | pIC50 | 4.89

P: CN1C(=O)C(c2ccsc2)(c2cccc(-c3cccnc3)c2)N=C1N (racemic)
Q: CC(C)CCn1cc(C2(c3cccc(-c4cccnc4F)c3)N=C(N)N(C)C2=O)cn1 (racemic)
R: CCc1cc(C2(c3cccc(-c4cncnc4)c3)N=C(N)N(C)C2=O)c(C)s1 (racemic)
S: CCC(=O)c1cc(C2(c3cccc(-c4cccnc4F)c3)N=C(N)N(C)C2=O)cs1 (racemic)
T: CCCCn1cc(C2(c3cccc(-c4cccnc4F)c3)N=C(N)N(C)C2=O)cn1 (racemic)
*Q* Your job: order these 5 records by pIC50, ascending. Submit the labels in the order that the ranking request calls for.
*A* P, R, S, T, Q

---

Record: pIC50 reported on Cathepsin D (Homo sapiens, UniProt P07339).
Sequence (P07339 65-162 limits assumed): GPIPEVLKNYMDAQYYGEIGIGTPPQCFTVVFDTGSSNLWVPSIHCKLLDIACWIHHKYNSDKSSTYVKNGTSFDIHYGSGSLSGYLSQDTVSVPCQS
Sequence (P07339 169-412 limits assumed): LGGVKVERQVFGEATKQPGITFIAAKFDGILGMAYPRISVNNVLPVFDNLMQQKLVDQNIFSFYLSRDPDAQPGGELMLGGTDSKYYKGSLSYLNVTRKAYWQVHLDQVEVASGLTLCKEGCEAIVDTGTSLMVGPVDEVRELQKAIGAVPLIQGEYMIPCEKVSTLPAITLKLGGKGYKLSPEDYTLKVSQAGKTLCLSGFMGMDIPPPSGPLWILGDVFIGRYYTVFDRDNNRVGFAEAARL
pIC50: −log10 of the molar value.
MEASURED_QUANTITY: pIC50

1: CN1C(=O)C(c2ccsc2)(c2cccc(-c3cccnc3F)c2)N=C1N (racemic)
2: CN1C(=O)C(c2cccc(-c3cncnc3)c2)(c2cnn(CCC3CCCCC3)c2)N=C1N (racemic)
3: CCn1cc(C2(c3ccc(F)c(-c4cncnc4)c3)N=C(N)N(C)C2=O)cn1 (racemic)
*Q* Arrange the items listed above so that pIC50 rises from first to last. Submit the labels in the order that the ranking request calls for.
*A* 3, 1, 2

---

Record: IC50 reported on Cathepsin D (Homo sapiens, UniProt P07339).

Recorded results for 2 molecules are shown here.
MOLECULE | SYSTEM_UNDER_TEST | RESULT
NC1=NC(c2ccccc2)(c2ccccc2)C2=NCCCN12 | Cathepsin D (Homo sapiens, UniProt P07339) | > 100 µM
CN1C(=O)C(c2ccc(F)c(-c3cncnc3)c2)(c2cnn(CC(F)(F)F)c2)N=C1N (racemic) | Cathepsin D (Homo sapiens, UniProt P07339) | 38.6 µM

Next:
molecule CN1C(=O)C(c2ccccc2)(c2ccccc2)N=C1N , IC50 observed: > 100 µM

All figures here come from ChEMBL document CHEMBL1821667.
